Biological target: T1, Pot1-DBD_Q91A (Schizosaccharomyces pombe, UniProt O13988 1-389, Q91A)
T1 sequence: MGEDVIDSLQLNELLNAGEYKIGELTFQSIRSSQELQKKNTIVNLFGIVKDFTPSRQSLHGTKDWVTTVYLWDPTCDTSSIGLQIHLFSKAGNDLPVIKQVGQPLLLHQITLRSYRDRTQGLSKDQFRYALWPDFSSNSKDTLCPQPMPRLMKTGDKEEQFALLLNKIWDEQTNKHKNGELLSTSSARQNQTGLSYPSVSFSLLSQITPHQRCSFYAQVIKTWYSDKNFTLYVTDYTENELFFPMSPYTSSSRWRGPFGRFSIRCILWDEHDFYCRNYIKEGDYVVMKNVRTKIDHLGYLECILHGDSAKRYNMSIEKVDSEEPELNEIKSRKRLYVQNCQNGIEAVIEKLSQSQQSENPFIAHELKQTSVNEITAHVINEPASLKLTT
Experiment: filter binding
VALUE_TYPE: Kd

>>> value_observed("GGTTACGGTTAC (ssDNA) [12mer]")
"7 nM"
>>> value_observed("GGTTACGGTTACGGTTACGGTTAC (ssDNA) [24mer]")
"0.06 nM"
>>> value_observed("CGTTACGGTTAC (ssDNA) [12mer_G1C]")
"50 nM"
>>> value_observed("GGTTACGGTTACGGT (ssDNA) [15mer]")
"0.04 nM"
